Biological target: T1, HLA B*0702 (human)
T1 MHC heavy: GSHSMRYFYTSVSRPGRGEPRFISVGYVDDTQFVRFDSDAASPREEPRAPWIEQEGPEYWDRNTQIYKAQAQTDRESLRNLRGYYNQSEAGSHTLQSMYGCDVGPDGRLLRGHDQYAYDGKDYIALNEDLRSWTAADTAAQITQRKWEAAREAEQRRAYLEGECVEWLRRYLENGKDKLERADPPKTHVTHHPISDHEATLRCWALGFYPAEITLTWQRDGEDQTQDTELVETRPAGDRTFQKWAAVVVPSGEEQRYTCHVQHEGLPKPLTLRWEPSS
Assay: peptide-HLA binding, inhibition of radiolabeled probe
recorded_endpoint: pIC50
One number for each entry, as −log10 of the molar value.

Worked cases, pIC50 given:
binder	pIC50
SPKRLATAIA	7.47
DPRRCLKPV	6.65
GPLVAGGLL	7.17

Next:
What value of measured pIC50 is listed for `RPGYHTQTA` ? 8.00
